# Tested on: Phakopsora pachyrhizi
# Assay protocol: Test A: test suspension sprayed on soybean seedlings, inoculated next day with Phakopsora pachyrhizi (Asian soybean rust), visual disease rating
# Format: in vivo
# Condition notes: Rate 10 ppm test suspension, relative to the controls

{"Compound": "COC(=O)c1coc(COc2ccc(-c3noc(C(F)(F)F)n3)cc2)n1", "Test A rating (% disease control) (%)": 60}
{"Compound": "O=C(NCCOC(F)(F)F)c1coc(Cc2ccc(-c3noc(C(F)(F)F)n3)cc2)n1", "Test A rating (% disease control) (%)": 100}
{"Compound": "COC(=O)c1coc(Cc2ccc(-c3noc(C(F)(F)F)n3)cc2)n1", "Test A rating (% disease control) (%)": 100}
{"Compound": "CON=C(CCl)COC(=O)c1cnn(Cc2ccc(-c3noc(C(F)(F)F)n3)cc2)c1", "Test A rating (% disease control) (%)": 100}
{"Compound": "O=C(c1ccc(Cc2ccc(-c3noc(C(F)(F)F)n3)cc2)o1)C(F)(F)F", "Test A rating (% disease control) (%)": 94}
{"Compound": "O=C(NCCn1cccn1)c1csc(COc2ccc(-c3noc(C(F)(F)F)n3)cc2)n1", "Test A rating (% disease control) (%)": 77}
{"Compound": "FC(F)(F)c1nc(-c2ccc(Cn3cc(I)cn3)cc2)no1", "Test A rating (% disease control) (%)": 71}
{"Compound": "CS(=O)(=O)Nc1cnn(Cc2ccc(-c3noc(C(F)(F)F)n3)cc2)c1", "Test A rating (% disease control) (%)": 44}
{"Compound": "CC(C)ON=Cc1cnn(Cc2ccc(-c3noc(C(F)(F)F)n3)cc2)c1", "Test A rating (% disease control) (%)": 100}
{"Compound": "CC1(C)OCC(COC(=O)c2cnn(Cc3ccc(-c4noc(C(F)(F)F)n4)cc3)c2)O1 (stereo not shown)", "Test A rating (% disease control) (%)": 100}
{"Compound": "N#CCNC(=O)c1csc(Cc2ccc(-c3noc(C(F)(F)F)n3)cc2)n1", "Test A rating (% disease control) (%)": 100}
{"Compound": "O=C(NCCn1cccn1)c1coc(COc2ccc(-c3noc(C(F)(F)F)n3)cc2)n1", "Test A rating (% disease control) (%)": 100}
{"Compound": "COC(=O)c1cnc(Oc2ccc(-c3noc(C(F)(F)F)n3)cc2)s1", "Test A rating (% disease control) (%)": 81}
{"Compound": "CCNC(=O)c1csc(Cc2ccc(-c3noc(C(F)(F)F)n3)cc2)n1", "Test A rating (% disease control) (%)": 100}
{"Compound": "O=C(c1coc(Cc2ccc(-c3noc(C(F)(F)F)n3)cc2)n1)N1CCC(F)(F)C1", "Test A rating (% disease control) (%)": 100}
{"Compound": "O=C(NCCn1cccn1)c1csc(Cc2ccc(-c3noc(C(F)(F)F)n3)cc2)n1", "Test A rating (% disease control) (%)": 100}
{"Compound": "COC(=O)c1coc(Cc2ccc(-c3noc(C(F)(F)F)n3)cc2)c1", "Test A rating (% disease control) (%)": 100}
{"Compound": "CCOC(=O)c1cnn(Cc2ccc(-c3noc(C(F)(F)F)n3)cn2)c1", "Test A rating (% disease control) (%)": 100}
{"Compound": "CSCC(=O)COC(=O)c1cnn(Cc2ccc(-c3noc(C(F)(F)F)n3)cc2)c1", "Test A rating (% disease control) (%)": 100}
{"Compound": "O=C1N(Cc2ccc(-c3noc(C(F)(F)F)n3)cc2)CCc2cncn21", "Test A rating (% disease control) (%)": 100}
{"Compound": "FC(F)(F)c1nc(-c2ccc(Cc3ccccc3)cc2)no1", "Test A rating (% disease control) (%)": 99}
{"Compound": "FC(F)(F)c1nc(-c2ccc(Cn3cc4c(I)ccnc4n3)cc2)no1", "Test A rating (% disease control) (%)": 100}
{"Compound": "CCCON=Cc1cnn(Cc2ccc(-c3noc(C(F)(F)F)n3)cc2)c1", "Test A rating (% disease control) (%)": 100}
{"Compound": "C=CCON=Cc1cnn(Cc2ccc(-c3noc(C(F)(F)F)n3)cc2)c1", "Test A rating (% disease control) (%)": 100}
{"Compound": "O=C(NCc1cccnc1)c1cnn(Cc2ccc(-c3noc(C(F)(F)F)n3)cc2)c1", "Test A rating (% disease control) (%)": 100}
{"Compound": "Nc1cnn(Cc2ccc(-c3noc(C(F)(F)F)n3)cc2)c1", "Test A rating (% disease control) (%)": 0}
{"Compound": "CCOC(=O)c1cccc(Cc2ccc(-c3noc(C(F)(F)F)n3)cc2)c1", "Test A rating (% disease control) (%)": 100}
{"Compound": "FC(F)(F)c1nc(-c2ccc(Cn3ncc4cc(Br)cnc43)cc2)no1", "Test A rating (% disease control) (%)": 100}
{"Compound": "CCOC(=O)c1csc(COc2ccc(-c3noc(C(F)(F)F)n3)cc2)n1", "Test A rating (% disease control) (%)": 0}
{"Compound": "O=C(OCc1ccccc1)c1cnn(Cc2ccc(-c3noc(C(F)(F)F)n3)cc2)c1", "Test A rating (% disease control) (%)": 100}
{"Compound": "O=C(NCCF)c1coc(Cc2ccc(-c3noc(C(F)(F)F)n3)cc2)n1", "Test A rating (% disease control) (%)": 100}
{"Compound": "COc1ccn(Cc2ccc(-c3noc(C(F)(F)F)n3)cc2)c(=O)c1", "Test A rating (% disease control) (%)": 100}
{"Compound": "C=C(Cl)COC(=O)c1cnn(Cc2ccc(-c3noc(C(F)(F)F)n3)cc2)c1", "Test A rating (% disease control) (%)": 100}
{"Compound": "O=[N+]([O-])c1cnn(Cc2ccc(-c3noc(C(F)(F)F)n3)cc2)c1", "Test A rating (% disease control) (%)": 100}

Numbers sourced from patent US12606548B2.
